# Study system: QPCTL (Homo sapiens (Human))
# Sequence (Q9NXS2 whole entry): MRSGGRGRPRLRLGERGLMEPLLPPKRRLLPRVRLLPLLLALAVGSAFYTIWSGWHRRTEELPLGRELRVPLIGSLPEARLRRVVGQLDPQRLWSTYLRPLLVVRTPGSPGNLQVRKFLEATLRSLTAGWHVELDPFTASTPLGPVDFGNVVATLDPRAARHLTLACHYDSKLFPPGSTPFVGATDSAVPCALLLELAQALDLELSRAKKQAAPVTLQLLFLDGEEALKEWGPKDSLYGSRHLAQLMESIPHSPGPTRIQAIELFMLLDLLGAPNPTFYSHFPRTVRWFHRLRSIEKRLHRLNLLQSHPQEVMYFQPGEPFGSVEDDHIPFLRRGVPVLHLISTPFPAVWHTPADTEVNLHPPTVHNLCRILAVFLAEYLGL
# Test name: Inhibition of Cellular QPCTL Activity - Imaging Assay, CC2C6 anti-CD47 staining of DLD-1 cells
# Assay type: cell-based
# Run conditions: 72 hours, CC2C6 anti-CD47 high-content imaging
Recorded IC50, one value per entry.

# count of solved cases: 3
{"Record smiles": "COc1cc(F)c(-c2ccc(F)nc2)c(N2CCC(c3nncn3C)CC2)c1C#N", "Meas value": "< 100 nM"}
{"Record smiles": "Cn1cnnc1C1CCN(c2c(C#N)cc(C#N)cc2-c2ccc(F)nc2)CC1", "Meas value": "< 100 nM"}
{"Record smiles": "Cn1cnnc1C1CCN(c2c(C#N)cccc2-c2cnc(=O)n(C)c2)CC1", "Meas value": "100 to 1000 nM"}

Input: Any idea what IC50 was measured for Cc1cc(-c2ccc(OCCN(C)C)c(C#N)c2N2CCC(c3nncn3C)CC2)cnn1 ?
Output: > 10000 nM
